system: Escherichia coli ATCC 25922

molecule	MIC (µM)
CC[C@H](C)[C@H](NC(=O)[C@H](CC(C)C)NC(=O)[C@@H](NC(=O)[C@@H](N)CC(=O)O)[C@@H](C)CC)C(=O)N[C@H](C(=O)N[C@H](C(=O)NCC(=O)NCC(=O)N[C@@H](CCCCN)C(=O)N[C@@H](CCCN=C(N)N)C(=O)N[C@@H](CCCN=C(N)N)C(=O)N[C@@H](CCCCN)C(=O)N[C@@H](CCCCN)C(=O)N[C@@H](CCCN=C(N)N)C(=O)N[C@@H](CCCN=C(N)N)C(=O)N[C@@H](CCCN=C(N)N)C(N)=O)C(C)C)[C@@H](C)CC [DILIIVGGKRRKKRRR]	4
N[C@@H](CC(=O)O)C(=O)N[C@@H](CC(=O)O)C(=O)N[C@@H](CC(=O)O)C(=O)N[C@@H](Cc1ccc(O)cc1)C(=O)O [DDDY]	8580
CC(C)C[C@H](NC(=O)[C@H](Cc1c[nH]c2ccccc12)NC(=O)[C@H](Cc1c[nH]c2ccccc12)NC(=O)[C@@H](N)Cc1c[nH]c2ccccc12)C(=O)N[C@@H](CCCN=C(N)N)C(=O)N[C@@H](CCCN=C(N)N)C(=O)N[C@@H](CCCN=C(N)N)C(=O)N[C@@H](Cc1c[nH]c2ccccc12)C(=O)O [WWWLRRRW]	16

----------
Below, each entry is listed with its recorded MIC.
system: Salmonella enterica serovar Typhimurium; test: ≥ marks a high value that may be exact or a test limit, other limits are often not marked, values filed in µg/mL are converted to µM

testSmiles	valuePrefix	MIC / µM
CC[C@H](C)[C@H](NC(=O)[C@H](CCCN=C(N)N)NC(=O)[C@H](CCCN=C(N)N)NC(=O)[C@H](CC(C)C)NC(=O)[C@@H](N)CCCN=C(N)N)C(=O)N[C@H](C(=O)N[C@H](C(=O)N[C@H](C(=O)N[C@@H](CCCN=C(N)N)C(=O)N[C@H](C(=O)N[C@@H](CCCN=C(N)N)C(=O)N[C@@H](CCCN=C(N)N)C(N)=O)C(C)C)[C@@H](C)CC)C(C)C)C(C)C	=	5.03
CC[C@H](C)[C@H](NC(=O)[C@H](CCCN=C(N)N)NC(=O)[C@H](C)NC(=O)[C@H](CCCN=C(N)N)NC(=O)[C@@H](N)CCCN=C(N)N)C(=O)N[C@H](C(=O)N[C@H](C(=O)N[C@H](C(=O)N[C@@H](CCCN=C(N)N)C(=O)N[C@H](C(=O)N[C@@H](C)C(=O)N[C@@H](CCCN=C(N)N)C(N)=O)C(C)C)[C@@H](C)CC)C(C)C)C(C)C	=	5.46
CC[C@H](C)[C@H](NC(=O)[C@H](CCCCN)NC(=O)[C@H](Cc1c[nH]c2ccccc12)NC(=O)[C@H](CCCCN)NC(=O)[C@@H](N)Cc1ccc(O)cc1)C(=O)N[C@@H](CCCN=C(N)N)C(=O)N[C@@H](Cc1ccccc1)C(=O)N[C@@H](CCCCN)C(=O)N[C@@H](CCCN=C(N)N)C(=O)O	=	8.2
CC[C@H](C)[C@H](NC(=O)[C@H](CCCN=C(N)N)NC(=O)[C@H](CCCN=C(N)N)NC(=O)[C@H](CCCN=C(N)N)NC(=O)[C@H](CCCN=C(N)N)NC(=O)[C@@H](NC(=O)[C@@H](N)C(C)C)[C@@H](C)CC)C(=O)N[C@@H](CC(C)C)C(=O)N[C@@H](C)C(=O)N[C@@H](C)C(=O)N[C@H](C(=O)N[C@H](C(N)=O)C(C)C)C(C)C	≥	95.7
